target: human purified sGC (heterodimer of sGCα1 and sGCβ1) (Homo sapiens (Human), UniProt Q02108+Q02153); experiment: sGC activation test (cGMP produced, HTRF); conditions: maximum activity of Preparation Example 200 compound (maximum 100 μM) taken as 100%; with SNP; read-out: EC50 (concentration giving 50% of maximum activity)
Sequence (Q02108 whole entry): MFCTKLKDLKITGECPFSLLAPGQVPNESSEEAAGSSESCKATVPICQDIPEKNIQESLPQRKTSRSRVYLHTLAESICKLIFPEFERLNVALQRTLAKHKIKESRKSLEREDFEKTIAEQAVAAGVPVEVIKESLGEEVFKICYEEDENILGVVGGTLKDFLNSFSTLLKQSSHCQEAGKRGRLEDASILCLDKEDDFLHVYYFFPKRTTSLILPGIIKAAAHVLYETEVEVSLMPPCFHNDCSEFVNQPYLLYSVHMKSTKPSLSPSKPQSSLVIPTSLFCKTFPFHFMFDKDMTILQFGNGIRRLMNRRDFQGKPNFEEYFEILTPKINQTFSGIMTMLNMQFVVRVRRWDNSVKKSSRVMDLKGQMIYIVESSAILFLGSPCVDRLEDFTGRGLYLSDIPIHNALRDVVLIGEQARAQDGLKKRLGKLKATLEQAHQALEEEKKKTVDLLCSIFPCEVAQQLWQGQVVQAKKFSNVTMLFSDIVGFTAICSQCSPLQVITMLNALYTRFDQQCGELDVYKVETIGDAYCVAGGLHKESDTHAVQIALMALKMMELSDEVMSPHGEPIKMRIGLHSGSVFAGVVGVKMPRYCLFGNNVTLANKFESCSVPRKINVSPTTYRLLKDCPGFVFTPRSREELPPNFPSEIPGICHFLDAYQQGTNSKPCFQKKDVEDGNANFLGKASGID
Sequence (Q02153 whole entry): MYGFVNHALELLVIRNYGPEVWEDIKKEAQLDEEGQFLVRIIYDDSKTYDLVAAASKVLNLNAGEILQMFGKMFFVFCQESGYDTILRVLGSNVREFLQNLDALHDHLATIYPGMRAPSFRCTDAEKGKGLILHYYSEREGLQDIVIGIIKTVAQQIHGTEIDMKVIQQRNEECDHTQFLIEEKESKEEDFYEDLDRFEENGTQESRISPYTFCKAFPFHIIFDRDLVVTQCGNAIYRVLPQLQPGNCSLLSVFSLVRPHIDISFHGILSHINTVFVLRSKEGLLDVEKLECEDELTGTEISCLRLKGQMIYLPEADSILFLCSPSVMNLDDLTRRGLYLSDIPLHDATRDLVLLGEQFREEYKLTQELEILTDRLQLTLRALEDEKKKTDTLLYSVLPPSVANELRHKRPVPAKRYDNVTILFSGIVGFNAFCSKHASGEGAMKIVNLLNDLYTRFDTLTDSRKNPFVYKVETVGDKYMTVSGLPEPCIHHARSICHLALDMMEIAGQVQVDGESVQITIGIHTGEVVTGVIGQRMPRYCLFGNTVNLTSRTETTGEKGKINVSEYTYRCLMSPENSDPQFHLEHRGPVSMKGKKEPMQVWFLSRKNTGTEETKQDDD
valueKind: EC50 (µM)
Kindly answer with a numeric value in µM, unit omitted.

compound	EC50 [µM]
Cc1nc2c(OCc3c(F)cccc3F)cccn2c1C(=O)N[C@@](C)(CO)c1nnn(C)n1 (stereo in doubt) [Example 108a]	4.6

Need EC50 of `Cc1ccc(C(CO)(CO)NC(=O)c2c(C)nc3c(OCc4c(F)cccc4F)cccn23)nc1` , thanks.
8.5

// lookup EC50 for Cc1nc2c(OCc3c(F)cccc3F)cccn2c1C(=O)NC(C)(CO)c1ccn(C)n1 (stereo not shown)
11

Need EC50 of `CCc1nnc([C@H](CO)NC(=O)c2c(C)nc3c(OCc4c(F)cccc4F)cccn23)o1` , thanks.
16

* * *

target: human purified sGC (heterodimer of sGCα1 and sGCβ1) (Homo sapiens (Human), UniProt Q02108+Q02153); assay: sGC activation test (cGMP produced, HTRF); conditions: maximum activity of Preparation Example 200 compound (maximum 100 μM) taken as 100%; with SNP; read-out: EC50 (concentration giving 50% of maximum activity)
valueKind: EC50 (µM)
# unit: µM | format: bare number

# annotated cases, reported EC50 shown
compound	EC50 / µM
Cc1nc2c(OCc3c(F)cccc3F)cccn2c1C(=O)N[C@@](C)(CO)c1ccccc1F	1.6
Cc1nc2c(OCC3CCCCC3)cccn2c1C(=O)NC(C)(CO)c1nnc(C(F)(F)F)o1 (centres unmarked)	1.4
COCCn1nnc(C(C)(CO)NC(=O)c2c(C)nc3c(OCc4c(F)cccc4F)cccn23)n1 (centres unmarked)	12
COc1ccc(C(CO)(CO)NC(=O)c2c(C)nc3c(OCc4c(F)cccc4F)cccn23)cn1	3.3

Note: attention shifts to another entry.
State the recorded EC50 for this entry: Cc1nc2c(OCc3ccccc3F)cccn2c1C(=O)NC(C)(CO)c1ccc(CO)cc1 (centres unmarked)
12

* * *

biological target: human purified sGC (heterodimer of sGCα1 and sGCβ1) (Homo sapiens (Human), UniProt Q02108+Q02153); assay: sGC activation test (cGMP produced, HTRF); conditions: maximum activity of Preparation Example 200 compound (maximum 100 μM) taken as 100%; with SNP; read-out: EC50 (concentration giving 50% of maximum activity)
Recorded EC50 by entry
Your answer is read as µM, so omit the unit and give the number.

Take a look at these entries with their results.
molecule	EC50 [µM]
CCc1nnc(C(C)(CO)NC(=O)c2c(C)nc3c(OCc4c(F)cccc4F)cccn23)o1 (stereo not shown)	5.5
OCc1ccc(-c2nn(Cc3ccccc3)c3ccccc23)o1 [YC-1, reference compound]	50
Cc1nnc([C@H](CO)NC(=O)c2c(C)nc3c(OCC4CCCCC4)cccn23)o1	14

With those in mind, consider the next molecule.
# EC50 lookup, item `Cc1nc2c(OCc3c(F)cccc3F)cccn2c1C(=O)N[C@@](C)(CO)c1ncc(CO)s1`
3.6

* * *

Measured EC50 by item
molecular target: human purified sGC (heterodimer of sGCα1 and sGCβ1) (Homo sapiens (Human), UniProt Q02108+Q02153); experiment: sGC activation test (cGMP produced, HTRF); conditions: maximum activity of Preparation Example 200 compound (maximum 100 μM) taken as 100%; with SNP; read-out: EC50 (concentration giving 50% of maximum activity)
The answer is to be given in µM; state only the numeric part.

See these solved cases before continuing.
molecule	valueKind	unitOfMeasure	val
Cc1nc2c(OCc3c(F)cccc3F)cccn2c1C(=O)N[C@@H](C)c1ccccc1[C@@H](O)CO (stereo in doubt)	EC50	µM	1.9
Cc1nc2c(OCC3CCCCC3)cccn2c1C(=O)NC(C)(CO)c1nnc(C2CC2)o1 (stereo not shown)	EC50	µM	5.3
Cc1nc2c(OCc3c(F)cccc3F)cccn2c1C(=O)N[C@@](C)(CO)c1nc(CO)cs1	EC50	µM	4

Which EC50 value is on record for `Cc1nc2c(OCc3c(F)cccc3F)cccn2c1C(=O)NC(CO)(CO)c1ccc(F)cn1` ?
3.7
